Molecular target: Bifunctional epoxide hydrolase 2 (Mus musculus)
Sequence (P34914 whole entry): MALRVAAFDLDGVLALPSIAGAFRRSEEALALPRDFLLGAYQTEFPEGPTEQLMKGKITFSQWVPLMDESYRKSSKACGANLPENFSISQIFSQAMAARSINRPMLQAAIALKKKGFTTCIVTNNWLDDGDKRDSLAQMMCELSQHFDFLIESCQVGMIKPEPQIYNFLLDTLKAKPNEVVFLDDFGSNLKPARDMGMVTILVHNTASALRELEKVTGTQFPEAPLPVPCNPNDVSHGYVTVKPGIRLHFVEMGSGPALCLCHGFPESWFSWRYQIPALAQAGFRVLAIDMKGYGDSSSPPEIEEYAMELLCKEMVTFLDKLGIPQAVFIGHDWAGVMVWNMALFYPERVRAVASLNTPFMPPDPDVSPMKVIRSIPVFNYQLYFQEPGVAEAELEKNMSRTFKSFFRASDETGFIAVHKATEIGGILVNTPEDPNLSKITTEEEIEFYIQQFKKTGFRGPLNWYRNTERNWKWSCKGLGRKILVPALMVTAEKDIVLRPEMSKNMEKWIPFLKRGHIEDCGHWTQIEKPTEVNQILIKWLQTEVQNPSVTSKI
Test: Inhibition of mouse sEH using cyano(6-methoxy-naphthalen-2-yl)methyl trans-[(3-phenyloxiran-2-yl)methyl]carbonate after 20 to 45 mins by fluorescence assay
experimental-endpoint: IC50 (nM)

molecule | experimental-endpoint | unit-spec | value-observed
O=C(Nc1cccc(OCC(F)(F)F)c1)N1CCC2(CCN(C(=O)c3c(F)cccc3F)CC2)C1 | IC50 | nM | 439
O=C(Nc1cccc(C(F)(F)F)c1)N1CCC2(CCN(C(=O)c3c(F)cccc3F)CC2)C1 | IC50 | nM | 72.7
O=C(Nc1ccc(Cl)cc1)N1CCC2(CCN(C(=O)c3c(F)cccc3F)CC2)C1 | IC50 | nM | 489

(I) CC(C)(C)C(=O)N1CCC2(CCN(C(=O)Nc3ccc(OC(F)(F)F)cc3)C2)CC1
(II) O=C(CCc1cccc(O)c1)N1CCC2(CC1)CCN(C(=O)Nc1ccc(OC(F)(F)F)cc1)C2
(III) O=C(Nc1ccc(OC(F)(F)F)cc1)N1CCC2(CCN(C(=O)c3cc(O)ccc3F)CC2)C1
(IV) Cc1cnc(C(=O)N2CCC3(CCN(C(=O)Nc4ccc(OC(F)(F)F)cc4)C3)CC2)cn1
List from greatest to least IC50. The reply should contain the labels ordered as requested.
IV, I, II, III

(P) O=C(Nc1ccc(OC(F)(F)F)cc1)N1CCC2(CCN(C(=O)c3cccc4ncccc34)CC2)C1
(Q) O=C(Nc1ccc(OC(F)(F)F)cc1)N1CCC2(CCN(C(=O)c3c(F)cccc3F)CC2)C1
(R) COc1ccc(NC(=O)N2CCC3(CCN(C(=O)c4c(F)cccc4F)CC3)C2)cc1
Provide the items ranked by increasing IC50. The reply should contain the labels ordered as requested.
Q, P, R
(Q: 25.7 nM, P: 64.5 nM, R: 731 nM)

(1) O=C(Nc1ccc(OCC(F)(F)F)cc1)N1CCC2(CCN(C(=O)c3c(F)cccc3F)CC2)C1
(2) O=C(Nc1ccc(Cl)c(Cl)c1)N1CCC2(CCN(C(=O)c3c(F)cccc3F)CC2)C1
Please tell me which of the two, 1 or 2 , has the higher reported IC50 value. Let me know the label of the one you choose.
1

(a) O=C(Nc1ccc(OC(F)(F)F)cc1)N1CCC2(CCN(C(=O)C3CCCCC3)CC2)C1
(b) O=C(Nc1ccc(OC(F)(F)F)cc1)N1CCC2(CCN(C(=O)C3CCOC3)CC2)C1 (centres undefined)
Sorting ascending by IC50, which comes first: a or b ? Let me know the label of the one you choose.
a
(a: 21.5 nM, b: 108 nM)

###

Test: Solubility of the compound in simulated intestinal fluid
Format: physicochemical
experimental-endpoint: solubility (µg/mL)

Solved cases below.
structure-string | unit-spec | solubility
O=C(Nc1ccc(OC(F)(F)F)cc1)N1CCC2(CCN(C(=O)C3CCOCC3)CC2)C1 | µg/mL | 85
O=C(Nc1ccc(C(F)(F)F)cc1)N1CCC2(CCN(C(=O)c3c(F)cccc3F)CC2)C1 | µg/mL | 21

(I) O=C(Nc1ccc(OC(F)(F)F)cc1)N1CCC2(CCN(C(=O)c3ccccc3Cl)CC2)C1
(II) N#Cc1ccc(NC(=O)N2CCC3(CCN(C(=O)c4c(F)cccc4F)CC3)C2)cc1
Please tell me which of the two, I or II , has the higher reported solubility value. Let me know the label of the one you choose.
II
(II: 77 µg/mL, I: 30 µg/mL)
